remaining activity at 10 µM listing for selected compounds.
- target or test system: CCR2 (Homo sapiens, UniProt P41597)
- Construct: Membranes were prepared from THP-1 cells; endogenous in cells; host or cells: THP-1 cells (membrane preparation)
- Sequence (P41597 1-360 isoform P41597-2): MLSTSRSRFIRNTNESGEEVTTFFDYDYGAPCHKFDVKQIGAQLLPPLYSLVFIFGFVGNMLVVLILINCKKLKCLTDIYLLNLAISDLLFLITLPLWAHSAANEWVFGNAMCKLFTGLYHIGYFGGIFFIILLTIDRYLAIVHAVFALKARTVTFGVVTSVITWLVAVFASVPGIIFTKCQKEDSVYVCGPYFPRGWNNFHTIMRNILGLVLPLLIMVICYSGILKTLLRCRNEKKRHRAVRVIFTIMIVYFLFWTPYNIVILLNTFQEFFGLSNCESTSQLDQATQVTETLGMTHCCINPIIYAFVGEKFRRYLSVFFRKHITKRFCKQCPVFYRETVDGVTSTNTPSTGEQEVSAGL
- procedure details: CCR2 receptor membrane binding assay ([125I]MCP-1, THP-1 cell membranes, SPA beads)
- run parameters: @ 10 μM test compound; THP-1 membranes; read-out: CCR2 % ctrl @ 10 μM
Write the numeric value and follow it with the unit.

Q: What value of measured remaining activity at 10 µM is listed for Cc1c(NCCc2ccc(Cl)c(Cl)c2)ncnc1C(=O)N1CCC(N2CC[C@@H](O)[C@@H](O)C2)CC1 ?
Ans: 2%

Q: What value of measured remaining activity at 10 µM is listed for CCc1c(NCc2cccc(-c3ccccc3)c2)ncnc1C(=O)N1CCC(N2CCOCC2)CC1 ?
Ans: 23%

Q: What value of measured remaining activity at 10 µM is listed for Cc1c(NCCc2cccc(Cl)c2)ncnc1C(=O)N1CCC(N2CCCCC2)CC1 ?
Ans: 9%

Q: What value of measured remaining activity at 10 µM is listed for Cc1c(NCC2CCN(c3ccccc3)CC2)ncnc1C(=O)N1CCC(N2CCC(N(C)S(C)(=O)=O)CC2)CC1 ?
Ans: 12%

* * *

- target or test system: CCR2 (Homo sapiens, UniProt P41597)
- Construct: Membranes were prepared from THP-1 cells; endogenous in cells; host or cells: THP-1 cells (membrane preparation)
- procedure details: CCR2 receptor membrane binding assay ([125I]MCP-1, THP-1 cell membranes, SPA beads)
- run parameters: dissociation constant hKi; [125I]MCP-1 binding to THP-1 membranes
measurement name: Ki (nM)
Your answer is read as nM, so omit the unit and give the number.

[
  {
    "molecule": "Cc1c(NCC2CCC(c3ccccc3)C2)ncnc1C(=O)N1CCC(N2CCC(N(C)S(C)(=O)=O)CC2)CC1 (stereo not shown) [Example 159d]",
    "target or test system": "CCR2 (Homo sapiens, UniProt P41597)",
    "unit annotation": "nM",
    "Ki": 15
  }
]

Q: What value of measured Ki is listed for Cc1ccc([C@H]2CCC[C@@H](CNc3ncnc(C(=O)N4CCC(N5CCC(N(C)S(C)(=O)=O)CC5)CC4)c3C)C2)o1 [Example 159xb] ?
Ans: 6

Q: What value of measured Ki is listed for Cc1ccc(C2CCC(CNc3nc(C)nc(C(=O)N4CCC(N5CCC(N(C)S(C)(=O)=O)CC5)CC4)c3C)O2)cc1 (stereo not shown) [Example 159oa] ?
Ans: 29

Q: What value of measured Ki is listed for Cc1c(NCC2CCC(c3ccccc3)CC2)ncnc1C(=O)N1CCC(N2CCC(O)CC2)CC1 (stereo not shown) [Example 121] ?
Ans: 147
